- target.entity: T1, human BCMA (B-Cell Maturation Antigen) on NCI-H929 cells (human, UniProt Q02223 1-184)
- T1 construct: whole, on cells; Endogenous BCMA on NCI-H929 myeloma cells; also called TNFRSF17; H929 cells (BCMA+, lambda-)
- T1 sequence (looked up): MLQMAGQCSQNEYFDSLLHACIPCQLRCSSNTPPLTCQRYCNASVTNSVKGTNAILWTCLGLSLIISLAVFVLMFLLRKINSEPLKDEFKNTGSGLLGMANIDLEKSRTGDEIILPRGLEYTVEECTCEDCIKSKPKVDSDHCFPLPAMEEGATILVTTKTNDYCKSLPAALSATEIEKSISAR
- test.details: flow cytometry, HEK supernatants on NCI-H929 cells (BCMA+)
- Description: Supernatants of all antibodies were also tested by flow cytometry for binding to RPMI-8226 cells (BCMA+, lambda+) and H929 cells (BCMA+, lambda−). The samples were measured by flow cytometry using a Guava easyCyte 8HT instrument from EMD Millipore and analyzed using guavaSoft. Bound antibodies were detected with goat anti-human IgG F(ab')_2 conjugated to PE (Southern Biotech 2042-09). […] Positive staining was determined by comparison to staining with a human IgG1 isotype control. […]
property: binding result

SEQ ID NO 29 (antibody, V domains shown, UniAb: CH1 deleted, no light chain; HEK supernatant) VH: EVQLLESGGGLVQPGGSLRLSCAASGFTFSSYAMNWVRQAPGKGLEWVSGIIGSGGSTYYADSVKGRFTISRDNSKNTLYLQMNSLRAEDTAVYYCVKDWNTTMITERGQGTLVTVSS	binds
SEQ ID NO 45 (antibody, V domains shown, UniAb: CH1 deleted, no light chain; HEK supernatant) VH: EVQLLESGGGVVQPGRSLRLSCAASGFTFSSYAMNWVRQAPGKGLEWVSGIIGSGGSTYYADSVKGRFTISRDNSKNTLYLQMNSLRAEDTAVYYCVKDWNTTMITERGQGTLVTVSS	binds
